EC50 for assorted compounds
# target-system: ABCC6 WT (Homo sapiens, UniProt O95255)
# Sequence (O95255 whole entry): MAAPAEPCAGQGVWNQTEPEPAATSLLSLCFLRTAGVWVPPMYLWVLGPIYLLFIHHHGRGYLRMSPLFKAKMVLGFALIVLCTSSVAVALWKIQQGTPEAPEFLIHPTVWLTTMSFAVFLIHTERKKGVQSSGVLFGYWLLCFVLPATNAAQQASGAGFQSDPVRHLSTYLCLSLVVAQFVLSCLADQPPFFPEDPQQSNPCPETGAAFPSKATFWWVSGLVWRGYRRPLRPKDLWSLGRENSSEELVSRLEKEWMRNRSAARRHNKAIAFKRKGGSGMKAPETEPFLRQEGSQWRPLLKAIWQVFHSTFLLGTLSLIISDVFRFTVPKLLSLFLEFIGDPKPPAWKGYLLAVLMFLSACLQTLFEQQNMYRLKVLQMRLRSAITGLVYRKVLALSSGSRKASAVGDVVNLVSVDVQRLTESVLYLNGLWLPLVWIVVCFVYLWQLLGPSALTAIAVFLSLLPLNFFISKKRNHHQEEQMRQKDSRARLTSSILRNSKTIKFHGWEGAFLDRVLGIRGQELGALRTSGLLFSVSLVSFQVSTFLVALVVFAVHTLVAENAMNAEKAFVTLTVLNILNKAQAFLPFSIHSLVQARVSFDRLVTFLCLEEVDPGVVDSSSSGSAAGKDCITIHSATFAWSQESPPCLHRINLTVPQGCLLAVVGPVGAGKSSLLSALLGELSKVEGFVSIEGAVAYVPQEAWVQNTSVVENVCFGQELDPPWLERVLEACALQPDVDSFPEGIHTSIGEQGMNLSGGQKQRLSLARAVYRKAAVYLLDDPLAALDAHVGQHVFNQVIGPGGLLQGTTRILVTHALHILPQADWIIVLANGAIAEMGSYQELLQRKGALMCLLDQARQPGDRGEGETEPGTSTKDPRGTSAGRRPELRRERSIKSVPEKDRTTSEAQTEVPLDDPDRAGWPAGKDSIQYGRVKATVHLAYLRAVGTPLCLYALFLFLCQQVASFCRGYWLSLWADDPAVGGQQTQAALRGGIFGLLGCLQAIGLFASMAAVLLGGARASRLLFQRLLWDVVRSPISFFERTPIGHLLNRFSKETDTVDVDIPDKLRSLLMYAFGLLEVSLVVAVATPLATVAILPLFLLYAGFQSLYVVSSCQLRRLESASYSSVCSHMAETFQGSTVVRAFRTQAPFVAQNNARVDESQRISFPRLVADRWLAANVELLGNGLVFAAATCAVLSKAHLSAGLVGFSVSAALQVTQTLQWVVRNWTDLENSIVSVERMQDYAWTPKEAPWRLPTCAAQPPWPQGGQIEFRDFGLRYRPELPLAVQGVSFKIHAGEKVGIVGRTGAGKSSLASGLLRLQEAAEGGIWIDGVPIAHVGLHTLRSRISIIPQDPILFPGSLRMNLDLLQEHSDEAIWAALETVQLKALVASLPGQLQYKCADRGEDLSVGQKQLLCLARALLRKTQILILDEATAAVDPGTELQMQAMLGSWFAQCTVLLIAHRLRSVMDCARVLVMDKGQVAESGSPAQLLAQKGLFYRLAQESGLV
# protocol-description: ABCC6 WT assay: HiBit protein expression
# measurement-parameters: HEK-293 cells transiently expressing HiBit-tagged ABCC6 WT; 24 h treatment; top concentration 20 μM; read-out: ABCC6 WT EC50, Emax

Reference set, count: 3
1. Cc1cc(C)c(Oc2nc(-c3cncc(Cl)c3)ccc2NS(=O)(=O)C2CC2)c(C)n1	< 1000 nM
2. Cc1cc(C(F)(F)F)nc(C2CC2)c1Oc1nc(-c2cncc(C#N)c2)ccc1S(=N)(=O)c1cccnc1 (stereo not shown)	1000 to 10000 nM
3. CCS(=O)(=O)Nc1ccc(-c2cncc(C#N)c2)nc1Oc1c(C)cc(C(F)(F)F)nc1C	< 1000 nM

Moving on to another compound below.
// EC50 (ABCC6 WT (Homo sapiens, UniProt O95255)) for Cc1cc(C)c(Oc2nc(-c3cncc(Cl)c3)ccc2S(=O)(=O)Nc2cnn(C)c2)c(C)c1 = 1000 to 10000 nM

All values here come from patent US20250228835A1.
